The reader will find reported IC50 values listed item by item below.
Target: recombinant human colony stimulating factor 1 receptor (FMS) (Homo sapiens)
Construct: containing the catalytic domain (amino acids 538-910); His tag
Sequence (P07333 538-910): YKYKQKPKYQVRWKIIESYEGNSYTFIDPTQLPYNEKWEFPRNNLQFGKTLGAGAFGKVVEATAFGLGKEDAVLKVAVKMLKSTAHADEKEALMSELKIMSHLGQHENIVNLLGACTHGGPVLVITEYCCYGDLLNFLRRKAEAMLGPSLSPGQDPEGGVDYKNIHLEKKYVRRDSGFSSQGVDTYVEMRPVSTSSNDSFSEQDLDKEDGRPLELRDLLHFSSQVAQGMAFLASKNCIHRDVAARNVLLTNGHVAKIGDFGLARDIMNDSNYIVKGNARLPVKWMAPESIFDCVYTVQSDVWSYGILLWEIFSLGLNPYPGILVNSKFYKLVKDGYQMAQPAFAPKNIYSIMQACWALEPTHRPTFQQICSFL
Test: Biochemical cFMS (CSF1R) fluorescence polarization kinase assay
Conditions: 10 μM ATP, 100 μM substrate, 60 minutes

                                   molecule          result
0  Nc1ncnc2c3c(n(-c4ccc(NC(=O)Nc5ccccc5C(F)(F)F)cc4)c12)CCC3 [Compound 23]  100 to 1000 nM

In: Quick one: IC50 for Nc1ncnc2c3c(n(-c4ccc(NC(=O)Nc5cccc(F)c5)cc4)c12)CCC3 [Compound 19] ?
Out: < 100 nM

In: Look up IC50: Nc1ncnc2c3c(n(-c4ccc(NC(=O)Nc5ccccc5Cl)cc4)c12)CCC3 [Compound 36]
Out: 100 to 1000 nM

In: Given the molecule Nc1ncnc2c3c(n(-c4ccc(NC(=O)c5ccccc5)cc4)c12)CCC3 [Compound 10] , what is its reported IC50?
Out: > 1000 nM

In: IC50 for N#Cc1ccccc1NC(=O)Nc1ccc(-n2c3c(c4ncnc(N)c42)CCC3)cc1 [Compound 71] ?
Out: > 1000 nM

In: Need IC50, item COc1ccc(NC(=O)Nc2ccc(-n3c4c(c5ncnc(N)c53)CCC4)cc2)cc1F [Compound 56]
Out: < 100 nM

In: Name the recorded IC50 for Nc1ncnc2c3c(n(-c4ccc(NC(=O)Nc5ccc(OC(F)F)cc5)cc4)c12)CCC3 [Compound 27] .
Out: < 100 nM

In: Record request: IC50 value, item COc1ccc(NC(=O)Nc2ccc(-n3c4c(c5ncnc(N)c53)CCC4)cc2)c(F)c1 [Compound 54]
Out: < 100 nM

In: IC50 lookup needed for CS(=O)(=O)c1ccc(NC(=O)Nc2ccc(-n3c4c(c5ncnc(N)c53)CCC4)cc2)cc1 [Compound 64] , thanks.
Out: 100 to 1000 nM

In: Could you share which IC50 value was measured for CCNC(=O)Nc1ccc(-n2c3c(c4ncnc(N)c42)CCC3)cc1 [Compound 9] ?
Out: > 1000 nM

In: Which IC50 value is on record for Nc1ncnc2c3c(n(-c4ccc(NS(=O)(=O)c5ccccc5)cc4)c12)CCC3 [Compound 3] ?
Out: > 1000 nM

In: # IC50 lookup, item Nc1ncnc2c3c(n(-c4ccc(NC(=O)Nc5ccc(F)cc5)cc4)c12)COC3 [Compound 33]
Out: 100 to 1000 nM

In: Reported IC50 for CC(C)(C)c1cc(NC(=O)Nc2ccc(-n3c4c(c5ncnc(N)c53)CCC4)cc2)no1 [Compound 74] : what is it?
Out: < 100 nM

In: # input molecule: COc1ccc(NC(=O)Nc2ccc(-n3c4c(c5ncnc(N)c53)CCC4)cc2)cc1C(F)(F)F [Compound 55] ; wanted: its IC50
Out: 100 to 1000 nM
